Target: T1, human IFNAR-1 protein (form not stated) (human, UniProt P17181 28-436, limits assumed)
T1 construct: bispecific ELISA
T1 sequence (looked up): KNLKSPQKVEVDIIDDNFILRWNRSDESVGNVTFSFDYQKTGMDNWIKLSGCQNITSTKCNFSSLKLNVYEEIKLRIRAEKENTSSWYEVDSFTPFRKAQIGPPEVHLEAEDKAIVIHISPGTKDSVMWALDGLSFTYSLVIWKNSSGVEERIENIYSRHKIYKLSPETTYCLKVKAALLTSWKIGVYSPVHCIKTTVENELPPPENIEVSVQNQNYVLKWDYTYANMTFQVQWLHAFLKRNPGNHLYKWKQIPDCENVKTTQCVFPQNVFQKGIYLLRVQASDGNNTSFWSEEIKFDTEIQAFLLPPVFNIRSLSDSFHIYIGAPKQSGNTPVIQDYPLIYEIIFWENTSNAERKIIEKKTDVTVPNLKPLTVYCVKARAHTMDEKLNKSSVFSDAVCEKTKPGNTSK
Assay: affinity ranking of expressed humanized 8G11 IgGs (method not named)
Readout name: kon (M⁻¹ s⁻¹)

INSERT INTO measurements (binder, readout_name, output_unit, numeric_value) VALUES
  ('8G11-H4L3 (antibody, V domains shown, Humanized IgG expressed in HEK293; also called VH4 + VL3 (8G11)) VH: QVQLVQSGAEVVKPGASVKLSCKGSGFNIKDYYMHWVKQAPGQGLEWIGRIDPEDAETKYAPKFQGRATITADTSTSTAYLELSSLRSEDTAVYYCARGGNFYVMDYWGQGTLVTVSS VL: DIQLTQSPSFLSTSVGDRVTITCKASQNVGTNVVWYQQKPGKSPKVLIYSASYRVSGVPSRFSGSGSGTEFTLIISSVQPEDFATYFCQQKNNYPYTFGQGTKLEIK', 'kon', 'M⁻¹ s⁻¹', 301000),
  ('8G11 humanized VH3 + VL4 (antibody, V domains shown, Humanized IgG expressed in HEK293; also called VH3 + VL4 (8G11)) VH: QVQLVQSGAEVVKPGASVKVSCKGSGFNIKDYYMHWVKQAPGQGLEWIGRIDPEDAETKYAPKFQGRVTITADTSTSTVYLELSSLRSEDTAVYYCARGGNFYVMDYWGQGTLVTVSS VL: DIQMTQSPSFLSTSVGDRVTVTCKASQNVGTNVVWYQQKPGKSPKVLIYSASYRVSGVPSRFSGSGSGTEFTLIISSVQPEDFATYFCQQKNNYPYTFGQGTKLEIK', 'kon', 'M⁻¹ s⁻¹', 281000),
  ('8G11 humanized VH4 + VL2 (antibody, V domains shown, Humanized IgG expressed in HEK293; also called VH4 + VL2 (8G11)) VH: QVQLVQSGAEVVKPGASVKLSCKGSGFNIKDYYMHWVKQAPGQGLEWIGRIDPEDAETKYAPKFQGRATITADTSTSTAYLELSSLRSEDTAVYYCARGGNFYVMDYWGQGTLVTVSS VL: DIQLTQSPSFLSTSVGDRVTITCKASQNVGTNVVWYQQKPGKSPKVLIYSASYRVSGVPSRFSGSGSGTEFTLIISSLQPEDFATYYCQQKNNYPYTFGQGTKLEIK', 'kon', 'M⁻¹ s⁻¹', 292000),
  ('8G11 humanized VH1 + VL3 (antibody, V domains shown, Humanized IgG expressed in HEK293; also called VH1 + VL3 (8G11)) VH: QVQLVQSGAEVKKPGASVKVSCKASGFNIKDYYMHWVRQAPGQGLEWMGRIDPEDAETKYAPKFQGRVTMTRDTSTSTVYMELSSLRSEDTAVYYCARGGNFYVMDYWGQGTLVTVSS VL: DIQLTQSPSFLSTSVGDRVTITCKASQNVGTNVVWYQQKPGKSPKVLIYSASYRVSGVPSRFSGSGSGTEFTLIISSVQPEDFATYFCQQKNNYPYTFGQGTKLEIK', 'kon', 'M⁻¹ s⁻¹', 231000);
